# Tested on: cocklebur
# Experiment description: Test C pre-/postemergence herbicide test
# Type: in vivo, Xanthium strumarium
# Condition label: 62 g ai/ha; preemergence
Provide the recorded Plant response rating (0 = no effect, 100 = complete control), Cocklebur for the entries that follow.
Give bare numbers.

Given smiles: CC(=O)c1cccc(NC(=O)c2cc(C(C)(C)C)nn2CCF)c1
Measured number: 10

Given smiles: CCNC(=O)c1cccc(NC(=O)c2cc(C(C)(C)C)nn2CC)n1
Measured number: 0

Given smiles: CCn1nc(C(C)(C)C)cc1C(=O)Nc1cccc(C(=O)NCC2CC2)c1
Measured number: 0

Input C=Cn1nc(C(C)(C)C)cc1C(=O)Nc1cccc(C(=O)N(CC)CC)c1 . Output Plant response rating (0 = no effect, 100 = complete control), Cocklebur: 0

---

# Test system: smallflower umbrella sedge
# Experiment description: Test C flooded paddy test
# Type: in vivo, Cyperus difformis
# Condition label: 250 g ai/ha, scale of 0 to 100, 0 is no effect, 100 is complete control
Threshold rule: Sedge, Umbrella plant response rating greater than or equal to 70 is 1; below that, -1.

Consider the worked cases shown below.
Given smiles: CCn1nc(C2(C)CC2)cc1C(=O)Nc1cc(C(=O)N2CC=CC2)ccc1F
Label class: 1

Given smiles: CCN1CCc2c(NC(=O)c3cc(C(C)(C)C)nn3CC)cccc2C1=O
Label class: 1

Given smiles: CCNC(=O)c1ccc(F)c(NC(=O)c2cc(C(C)(C)C)nn2CC)n1
Label class: -1

Challenge: Check this compound for Sedge, Umbrella plant response rating at or above 70: C#CCNC(=O)c1cc(NC(=O)c2cc(C(C)(C)C)nn2CC)ccn1
Response given: -1

Challenge: Check this compound for Sedge, Umbrella plant response rating at or above 70: CCN(C)C(=O)c1cccc(NC(=O)c2nn(C(C)C)nc2C)c1
Response given: 1

---

Provide the recorded Plant response rating, Crabgrass, Large for the entries that follow.
# System: large crabgrass
# Experiment description: Test B pre-/postemergence herbicide test
# Type: in vivo, Digitaria sanguinalis
# Condition label: 500 g ai/ha; visual rating, 0 = no effect, 100 = complete control; preemergence
# Method: […] At the same time, plants selected from these crop and weed species and also blackgrass (Alopecurus myosuroides Huds.), wheat (Triticum aestivum L.) and wild oat (Avena fatua L.) were treated with postemergence applications of test chemicals formulated in the same manner. […] Treated plants and controls were maintained in a greenhouse for 13 to 15 days, after which time all species were compared to controls and visually evaluated. […]
Answers are plain numbers.

Worked set:
Molecule: CCNC(=O)c1cc(NC(=O)c2cc(C(C)(C)C)nn2CC)c(F)cc1F [Compound 252]
Outcome measure: Plant response rating, Crabgrass, Large
Measured number: 100
--
Molecule: CCn1nc(C(C)(C)C)cc1C(=O)Nc1ccnc(C(=O)N2CC=CC2)c1 [Compound 282]
Outcome measure: Plant response rating, Crabgrass, Large
Measured number: 80

Now consider the entry below.
Input CCN(CC)C(=O)c1cccc(NC(=O)c2nn(C(C)(C)C)cc2Cl)c1 [Compound 218] . Output Plant response rating, Crabgrass, Large: 20

---

Provide the recorded Plant response rating, Corn for the entries that follow.
# System: corn
# Experiment description: Test C pre-/postemergence herbicide test
# Format: in vivo, Zea mays
# Condition label: 125 g ai/ha; scale 0 (no effect) to 100 (complete control); visual, 12 to 14 days; preemergence
Answers are plain numbers.

Please report Plant response rating, Corn for every entry that follows.
1. CCNC(=O)c1ccc(F)c(NC(=O)C2CC(C(C)(C)C)=NN2CC)c1 (racemic) [Compound 269]
2. CCNC(=O)c1ccc(F)c(NC(=O)c2cc(C3(C)CC3)nn2CC)c1 [Compound 300]
3. CCCCOc1cccc(NC(=O)c2cc(C(C)(C)C)nn2CC)c1 [Compound 137]

Response given:
[20, 30, 5]

---

Provide the recorded Oat, Wild plant response rating for the entries that follow.
# Test system: wild oat
# Experiment description: Test B postemergence herbicide test
# Format: in vivo, Avena fatua
# Condition label: 125 g ai/ha; visual rating, scale 0 (no effect) to 100 (complete control); postemergence
One number for each entry.

Worked set:
Given smiles: CCNC(=O)c1cccc(NC(=O)c2nn(C(C)C)nc2CC)c1
Measured number: 0

Given smiles: Cn1nc(C(C)(C)C)cc1C(=O)Nc1cccc(C(=O)NC2CC2)n1
Measured number: 0

Given smiles: CCc1nn(C(C)(C)C)nc1C(=O)Nc1cc(C(=O)N2CC=CC2)ccc1F
Measured number: 20

Given smiles: CCN(CC)C(=O)c1cccc(NC(=O)c2cc(C(C)(C)C)nn2C)n1
Measured number: 10

Please report Oat, Wild plant response rating for every entry that follows.
1. CCc1nn(C(C)C)nc1C(=O)Nc1cccc(C(=O)N(C)CC)c1
2. CCn1nc(C(C)(C)C)cc1C(=O)Nc1cncc(C(=O)N2CC=CC2)n1
3. Cc1nn(C(C)C)nc1C(=O)Nc1cc(C(=O)N2CC=CC2)ccc1F

Response given:
[0, 20, 0]

Please report Oat, Wild plant response rating for every entry that follows.
1. C#CCNC(=O)c1ccc(F)c(NC(=O)c2nn(C(C)(C)C)nc2CC)c1
2. CCn1nc(C(C)(C)C)cc1C(=O)Nc1cc(OC(F)(F)F)ccc1F

Response given:
1: 0; 2: 0

---

# Tested on: large crabgrass
# Experiment description: Test B pre-/postemergence herbicide test
# Type: in vivo, Digitaria sanguinalis
# Condition label: 125 g ai/ha; 0 = no effect, 100 = complete control; preemergence
Provide the recorded Crabgrass, Large plant response rating (0 to 100 scale) for the entries that follow.
One number for each entry.

Compound: CCNC(=O)c1cccc(NC(=O)c2nn(C(C)(C)C)cc2C(F)(F)F)c1 [Compound 170]
Measured number: 20

Please report Crabgrass, Large plant response rating (0 to 100 scale) for every entry that follows.
1. CCn1nc(C(C)(C)C)cc1C(=O)Nc1nc(C(=O)N2CC=CC2)ccc1F [Compound 281]
2. CCc1nc(C(C)(C)C)sc1C(=O)Nc1cccc(C(=O)N(CC)CC)n1 [Compound 214]
3. CCc1nc(C(C)(C)C)sc1C(=O)Nc1cccc(C(=O)NC(C)(C)C)n1 [Compound 216]
4. CCNC(=O)c1ccc(F)c(NC(=O)c2cn(C(C)(C)C)nc2CC)c1 [Compound 193]

Response given:
[10, 0, 0, 100]

---

# Test system: barnyardgrass
# Experiment description: Test B pre-/postemergence herbicide test
# Type: in vivo, Echinochloa crus-galli
# Condition label: postemergence, 500 g ai/ha; scale 0 to 100, 0 is no effect, 100 is complete control
Outcome measure: Barnyardgrass plant response rating
One number for each entry.

Worked set:
Compound: CCNC(=O)c1ccc(F)c(NC(=O)C2CC(C(C)(C)C)=NN2CC)c1 (racemic) [Compound 269]
Target or system: barnyardgrass
Barnyardgrass plant response rating: 30
//
Compound: CCNC(=O)c1ccc(F)c(NC(=O)c2cc(C3(C)CC3)nn2CC)c1 [Compound 300]
Target or system: barnyardgrass
Barnyardgrass plant response rating: 50
//
Compound: CCc1nn(C(C)(C)C)nc1C(=O)Nc1cc(C(=O)N2CC=CC2)ccc1F [Compound 363]
Target or system: barnyardgrass
Barnyardgrass plant response rating: 0
//
Compound: CCc1nn(C(C)C)nc1C(=O)Nc1cccc(C(=O)N2CCCCC2)c1 [Compound 385]
Target or system: barnyardgrass
Barnyardgrass plant response rating: 10

Now consider the entry below.
Input CCn1nc(C(C)(C)C)cc1C(=O)Nc1nc(C(=O)N2CC=CC2)ccc1F [Compound 281] . Output Barnyardgrass plant response rating: 0

---

# Test system: large crabgrass
# Experiment description: Test A pre-/postemergence herbicide test
# Type: in vivo, Digitaria sanguinalis
# Condition label: Postemergence, 500 g ai/ha; 0 to 100 scale, 0 no effect, 100 complete control
Provide the recorded Crabgrass, Large plant response rating for the entries that follow.

Compound: CC(=NO)c1cccc(NC(=O)c2cn(C(C)C)nc2C)c1 [Compound 180]
Result: 20

Compound: CCc1nc(C(C)(C)C)sc1C(=O)Nc1cccc(C(=O)NC(C)(C)C)n1 [Compound 216]
Result: 20

Compound: Cn1nc(C(C)(C)C)cc1C(=O)Nc1cccc(C(=O)NC2CC2)n1 [Compound 315]
Result: 20

Compound: CCOc1cccc(NC(=O)c2cn(C(C)(C)C)nc2C)c1 [Compound 190]
Result: 10

Compound: CCN(C)C(=O)c1ccc(F)c(NC(=O)c2cc(C(C)(C)C)nn2CC)n1 [Compound 280]
Result: 5

Please report Crabgrass, Large plant response rating for every entry that follows.
1. C#CCNC(=O)c1cc(NC(=O)c2cc(C(C)(C)C)nn2CC)ccn1 [Compound 283]
2. CCn1nc(C(C)(C)C)cc1C(=O)Nc1cc(OC(F)(F)F)ccc1F [Compound 338]
3. C#CCNC(=O)c1cncc(NC(=O)c2cc(C(C)(C)C)nn2CC)n1 [Compound 289]
4. CCOc1cccc(NC(=O)c2cc(C(C)(C)C)nn2CC)c1 [Compound 136]

Response given:
[10, 20, 20, 35]
